Just for reference, PubChem BioAssay is where these values come from.

testMethodNotes: small-molecule binders of probe aInhba, primary screen, biochemical, small-molecule microarray, 635/667 nm fluorescence (AID 1148);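 note: score merges 667nm spot fluorescence with signal-to-noise for antibody binding to printed compounds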
cond: higher = more signal
Field: composite z-score. Provide a value for each of the compounds that follow.

Please report the recorded composite z-score for CC=CC(O)C1C=CC2C(=O)N(C)C(=O)C2N1Nc1ccc([N+](=O)[O-])cc1[N+](=O)[O-] (stereo not drawn) .
-0.128

Need composite z-score of COC(=O)[C@H](Cc1ccccc1)N1CC(/C=C/C2CC2)=C[C@@H]1[C@@H](O)Cc1ccccc1 , thanks.
0.0471

Fill in: composite z-score of CN1C(=O)[C@@]2(CCS(=O)(=O)c3ccccc3)N=C(c3ccc(OCCCO)cc3)O[C@H]2c2ccccc21 is ___
-0.0384

Which measured composite z-score value corresponds to COCCCNC(=O)[C@@]1(Sc2ccc(C)cc2)CC(=O)N(C2Cc3ccccc3C2)[C@@H]1c1ccc(CO)cc1I ?
-0.157

composite z-score lookup needed for C=CC[C@]1(C(=O)N(C)C)N=C(c2ccc(OCCCO)cc2)O[C@H]1c1ccccc1N=[N+]=[N-] , thanks.
-0.0136

Recorded composite z-score for C=CCOC(=O)[C@H]1[C@@H]2C(=O)O[C@@H](c3ccccc3)[C@@H](c3ccccc3)N2[C@@H](c2ccc(OCCOC(=O)[C@H]3C[C@H]4C(=O)N[C@@H](Cc5ccccc5)C(=O)N4[C@H]3c3cccc(OCCO)c3)cc2)[C@]12C(=O)Nc1ccc(I)cc12 , please?
-0.0112

Which composite z-score value is on record for C=CCOC(=O)[C@@H]1[C@H]2C(=O)O[C@H](c3ccccc3)[C@H](c3ccccc3)N2[C@H](c2ccc(OCCOC(=O)[C@H]3C[C@H]4C(=O)N[C@@H](CCCCN(C)C)C(=O)N4[C@H]3c3cccc(OCCO)c3)cc2)[C@@]12C(=O)Nc1ccc(I)cc12 ?
0.019

Need composite z-score, item O=C1OCC=C[C@H]2OC34C=CCN(Cn5nnc6ccccc65)C(=O)[C@H]3N(CCCCCCO)C(=O)[C@@H]4[C@@H]12 (stereo partly drawn)
0.111

Reported composite z-score, compound CC(C)(C)OC(=O)CC[C@]1(C(=O)O)N=C(c2ccc(OCCCO)cc2)O[C@H]1c1ccccc1 : ____
-0.102

Reported composite z-score for COCCOC(=O)N1C(=O)[C@@]2(c3cc(C#CCC(C(=O)OC)C(=O)OC)ccc31)[C@H](c1ccc(OCCO)cc1)N1[C@H](c3ccccc3)[C@H](c3ccccc3)OC(=O)[C@H]1[C@@H]2C(=O)N1CCN(c2ncccn2)CC1 : what is it?
0.122

Give its composite z-score value. Item: Cc1c(NC(=O)/C(C#N)=C/C=C/c2ccccc2[N+](=O)[O-])c(=O)n(-c2ccccc2)n1C
-0.176

What does the data say about its composite z-score? Entry: C=CC[C@@H](OC(=O)Nc1ccc(OC)cc1)c1ccc(OCCO)cc1
-0.237

Reported composite z-score for CCOC(=O)C[C@H]1[C@H](OC(=O)c2ccc(C(=O)c3ccccc3)cc2)[C@@H](NC(=O)c2ccc3ccccc3c2)c2cc(OCCCO)ccc2N1C(=O)c1ccccc1 : what is it?
-0.105
